- METHOD NOTES: chemical genetic growth profiling, strain panel (AID 1159580);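 also: tested at 20 µM; growth read once vehicle control cultures reached saturation at 30 °C; 1 = growth at the plate median or of vehicle wells; lower values mean less growth of the strain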
- COND: S. cerevisiae deletion strains, growth OD, locus YOR001W, strain rrp6, active compounds read low
The campaign covered roughly 5,500 compounds. About 2,000 (36%) were called active. About 18% were inconclusive and are not listed. Some of the results follow.
Mark criterion met only for normalized growth values smaller than 1; exact matches and larger values are criterion not met.

CC(C[N+](C)(C)C)OC(N)=O (centres undefined)	criterion not met
CNC(C)[C@H](O)c1ccccc1 (some centres undefined)	criterion met
COc1cc(/C=C/C(=O)/C=C(O)/C=C/c2ccc(O)c(OC)c2)ccc1O	criterion met
CN1CCC(=C2c3ccccc3Sc3ccccc32)CC1	criterion met
O=C(O)c1c2ccccc2cc2ccccc12	criterion met
O=C(O)c1cc2ccccc2[nH]1	criterion met
CCN(CC)CCCC(C)Nc1c2ccc(Cl)cc2nc2ccc(OC)cc12 (centres undefined)	criterion met
CC(NCCc1ccc(O)cc1)C(O)c1ccc(O)cc1 (centres undefined)	criterion not met
CCN(CC)CCCC(C)Nc1ccnc2cc(Cl)ccc12 (centres undefined)	criterion not met
COc1cc(O)c(C(=O)/C=C/c2ccc(O)c(OC)c2)c(OC)c1	criterion met

Could you now consider this next compound?
Query: In plain terms, does COc1cc(O)c(C(=O)/C=C/c2ccccc2)c(OC)c1 come in under 1 for normalized growth?
Response: criterion met

---

- METHOD NOTES: chemical genetic growth profiling, strain panel (AID 1159580);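 also: tested at 20 µM; growth read once vehicle control cultures reached saturation at 30 °C; 1 = growth at the plate median or of vehicle wells; lower values mean less growth of the strain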
- COND: S. cerevisiae deletion strains, growth OD, locus YMR078C, strain ctf18, active compounds read low
The whole screen tested about 5,500 compounds, of which about 2,000 (36%) were called active. Roughly 18% stayed inconclusive and do not appear here. This is one part of the list.
Criterion: normalized growth strictly under 1. Met: yes (1). Not met: no (0).

Consider the following illustrative entries.
CC[C@H]1OC(=O)[C@H](C)[C@@H](O[C@H]2C[C@@](C)(OC)[C@@H](O)[C@H](C)O2)[C@H](C)[C@@H](O[C@@H]2O[C@H](C)C[C@H](N(C)C)[C@H]2O)[C@](C)(O)C[C@@H](C)CN(C)[C@H](C)[C@@H](O)[C@]1(C)O	yes (1)
C[N+](C)(C)CCOC(N)=O	yes (1)
COc1cc2c(cc1OC)C1C(=O)c3c(O)cc4c(c3OC1CO2)C=CC(C)(C)O4 (stereo unspecified)	no (0)
CC1/C(=N\O)C[C@@H]2C[C@H]1C2(C)C (stereo partly specified)	no (0)

Query: In the record for CCOC(=O)C(=O)C1(C(=O)OCC)Oc2cc(OC)cc(OC)c2C(=O)C1c1ccccc1 (stereo unspecified) , is normalized growth less than 1?
Response: yes (1)

---

- METHOD NOTES: chemical genetic growth profiling, strain panel (AID 1159580);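 also: tested at 20 µM; growth read once vehicle control cultures reached saturation at 30 °C; 1 = growth at the plate median or of vehicle wells; lower values mean less growth of the strain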
- COND: S. cerevisiae deletion strains, growth OD, locus YGL086W, strain mad1
The whole screen tested about 5,500 compounds, of which about 2,000 (36%) were called active. Roughly 18% stayed inconclusive and do not appear here. Cut-off read from the data, not from the text of the source: active = normalized growth mostly below about 0.91 (no sharp cut-off); inconclusive = no clear call, values can overlap the other calls; inactive = mostly above about 0.92. Some of the results follow.
Field 'call' accepts active, inactive

CC(C)CC(NC(=O)C(Cc1ccccc1)NC(=O)CNC(=O)CNC(=O)C(N)Cc1ccc(O)cc1)C(=O)O (configuration not stated)	inactive
CCN(CC)CCCC(C)Nc1ccnc2cc(Cl)ccc12 (configuration not stated)	inactive
O=C(O)C1(O)C[C@@H](O)C(O)[C@H](O)C1 (some centres not stated)	inactive
CC1=C(C(C)O)C2=NC1C=c1[nH]c(c(C)c1C(C)O)=Cc1[nH]c(c(CCC(=O)O)c1C)C=c1[nH]c(c(C)c1CCC(=O)O)=C2 (configuration not stated)	inactive
CC(NCCc1ccc(O)cc1)C(O)c1ccc(O)cc1 (configuration not stated)	inactive
CCC(=O)O[C@H]1[C@H](O[C@@H]2[C@@H](C)[C@H](O[C@H]3C[C@@](C)(OC)[C@@H](O)[C@H](C)O3)[C@@H](C)C(=O)O[C@H](CC)[C@@](C)(O)[C@H](O)[C@@H](C)C(=O)[C@H](C)C[C@@]2(C)O)O[C@H](C)C[C@@H]1N(C)C	inactive

Query: Per the records of this test, what outcome belongs to CCOC(=O)[C@H](CCc1ccccc1)N[C@H]1CCc2ccccc2N(CC(=O)O)C1=O ?
Response: inactive

Query: Now consider C=Cc1c2[nH]c(c1C)C=c1[nH]c(c(C)c1C=C)=CC1N=C(C=c3[nH]c(c(C)c3CCC(=O)O)=C2)C(CCC(=O)O)=C1C (configuration not stated) .
Response: inactive

Query: Next record, please: CCOC(=O)CCC(=O)O[C@H]1[C@H](O[C@@H]2[C@@H](C)[C@H](O[C@H]3C[C@@](C)(OC)[C@@H](O)[C@H](C)O3)[C@@H](C)C(=O)O[C@H](CC)[C@@](C)(O)[C@H](O)[C@@H](C)C(=O)[C@H](C)C[C@@]2(C)O)O[C@H](C)C[C@@H]1N(C)C
Response: inactive

Query: Okay, and CC(C(=O)O)c1ccc(-c2ccccc2)c(F)c1 (configuration not stated) ?
Response: inactive

Query: Same question, COc1ccc(OC)c(C(O)C(C)N)c1 (configuration not stated) this time
Response: inactive

Query: Follow-up item: C[C@]12CC(=O)C3C(CC[C@@H]4C[C@H](O)CC[C@]34C)C1CC[C@]2(O)C(=O)CO (some centres not stated)
Response: inactive

Query: // same read-out, input: CCCCCCCCNC(C)C(O)c1ccc(SC(C)C)cc1 (configuration not stated)
Response: active

Query: What would you report for Cc1cccc(C)c1OCC(C)N (configuration not stated) ?
Response: inactive

Query: And CCN(CCO)CCCC(C)Nc1ccnc2cc(Cl)ccc12 (configuration not stated) ?
Response: inactive

Query: Check CC(C(=O)O)c1cccc(Oc2ccccc2)c1 (configuration not stated) too.
Response: inactive

Query: Another molecule to look at: CC(C)(O)[C@@H]1[C@H]2OC(=O)[C@@H]1[C@]1(O)C[C@H]3O[C@]34C(=O)O[C@H]2[C@]14C
Response: inactive
